Source: PubChem BioAssay

target: Muscarinic acetylcholine receptor M4 (Homo sapiens); assay: M4-linked GIRK flux change, two-sided – cell-based, HEK293 M4/GIRK, thallium flux, BTC-AM, M4 allosteric agonist project, primary screen (AID 625); settings: at 10 µM, actives lie on both sides;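 note: thallium influx through GIRK channels coupled to M4 in HEK293 cells with BTC-AM dye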
assay-readout: fluorescence slope
Form field (numeric): enter value without unit.

// fluorescence slope lookup, key: COCCn1c(NCc2ccc(C)cc2)nc2c1c(=O)[nH]c(=O)n2C 0.00577

// fluorescence slope lookup, key: CCOc1ccc(OCC)c2sc(C)nc12 0.00571

// fluorescence slope lookup, key: COc1ccc(-c2cc(C(F)(F)F)nc(SCCC(=O)N3CCOCC3)n2)cc1 0.00462

// fluorescence slope lookup, key: O=c1c2ccccc2c(C=Nc2ccc(Cl)cn2)c(O)n1-c1cc(Cl)ccc1N1CCOCC1 0.00995

Next:
// fluorescence slope lookup, key: CCOC(=O)C1CCCN(c2nc3ccccc3nc2C(C#N)C(=O)NCc2ccccc2)C1 (stereo not given) 0.00538

---

experiment: blockers of RIG-like receptor reporter activation – cell-based, Sendai virus stimulus, luciferase, 10K MLSCN set, TLR/RLR signaling modifier project, primary screen (AID 602276); settings: HEK293 RL24 IRF3 luciferase reporter, at 10 µM, stronger effect = higher value;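 note: firefly luciferase from ISG56 promoter only with Renilla not read in this screen; 0% = Sendai virus plus DMSO and 100% = medium plus DMSO without virus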
assay-readout: inhibition (%)
Report the figure in % without appending any unit label.

Would you please look over these solved cases?
// inhibition lookup, key: O=C(NCCN1CCCC1)C1COc2ccccc2O1 (configuration not stated) 1.21

// inhibition lookup, key: Nc1c(Sc2ccccc2)c(=O)[nH]c(=O)n1Cc1ccccc1 -0.235

// inhibition lookup, key: CN(C)C(=O)C12CCC(C)(c3nc4ccccc4nc31)C2(C)C (configuration not stated) -7.12

// inhibition lookup, key: CC1=NS(=O)(=O)c2cc(Cl)ccc2N1 15.7

// inhibition lookup, key: CCOC(=O)c1nn(-c2sc(C(=O)OC)c(C)c2C(=O)OC)cc1O 20.5

// inhibition lookup, key: CC1CCCC(C(=O)OCc2ccccc2)N1 (configuration not stated) 13.2

// inhibition lookup, key: CCOC(=O)CNC(=O)C(Cc1ccccc1)NS(=O)(=O)c1ccc2c(c1)CCC(=O)N2 (configuration not stated) 0.424

// inhibition lookup, key: Cc1nc2ccccc2cc1C(=O)NCc1ccco1 1.46

// inhibition lookup, key: CC(C)(C)n1nnnc1C(c1cccc(C#N)c1)N1CCC(Cc2ccccc2)CC1 (configuration not stated) 25.2

// inhibition lookup, key: Cc1ccc(-c2c3c(=O)n(C)c(=O)n(C)c3cn2CCCN2CCOCC2)cc1 10.9

Next:
// inhibition lookup, key: CCN(CC)c1ccc2c(c1)CCCN2 8.33

// inhibition lookup, key: COc1ccc(-c2cn3cc(C)ccc3n2)cc1OC 29.4

---

assay: endothelial E-selectin expression blockers – imaging, HUVEC, immunofluorescence, MLSMR starter and 10KST1 sets, primary screen (AID 487); conditions: HUVEC TNFalpha-induced E-selectin immunofluorescence imaging, at 2 µM; measured here: cell number, toxicity;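 note: 100% = median nuclei count of all wells on the same plate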
assay-readout: nuclei count (%)
Report the figure in % without appending any unit label.

Would you please look over these solved cases?
// nuclei count lookup, key: CCCCOc1ccc(-c2nnn(CC(=O)NCc3ccco3)n2)cc1 104

// nuclei count lookup, key: CC(=O)OCC1=C(C(=O)O)N2C(=O)[C@@H](NC(=O)Cc3cccs3)[C@H]2SC1 116

// nuclei count lookup, key: Brc1ccc(C2=Nn3c(nnc3-c3ccncc3)SC2)cc1 117

Next:
// nuclei count lookup, key: O=c1c2c3nc4ccccc4nc3n(CC3CCCO3)c2ncn1CCc1ccccc1 (stereo unspecified) 107

// nuclei count lookup, key: CCn1ncc(C2=NOC(C(=O)N3CCC(C(N)=O)CC3)C2)c1C (stereo unspecified) 109

// nuclei count lookup, key: CCc1c(C)nc(N2CCN(Cc3ccccc3)CC2)[nH]c1=O 106

// nuclei count lookup, key: O=S(=O)(NCCSc1ccccc1)c1cccs1 104

// nuclei count lookup, key: COc1ccc(/C(O)=C2/C(=O)C(=O)N(CC3CCCO3)C2c2cccc(OC)c2)cc1 (stereo unspecified) 97.6

// nuclei count lookup, key: COc1ccccc1-n1cnnc1SCC(=O)c1ccc[nH]1 77.8

// nuclei count lookup, key: Cc1ccc(-c2nn3c(=O)c(C)nnc3s2)cc1 108

// nuclei count lookup, key: CCOc1ccc(CCNC(=O)CCc2nc(-c3ccc(OC)cc3)no2)cc1OCC 146

---

assay: inhibitors of TNFa-induced NFkB p65 translocation, primary screen, imaging, HUVEC, MLSMR starter and 10KST1 sets (AID 438); settings: HUVEC TNFa-induced p65 nuclear translocation; at 2 µM, stronger effect = higher value, 0% TNFa-plus-vehicle, 100% no-TNFa wells;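 note: compound added about 3h40 before a 20 min TNFalpha stimulation; signal is the nuclear over cytoplasmic p65 intensity ratio per well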
assay-readout: inhibition (%)
Report the figure in % without appending any unit label.

// inhibition lookup, key: c1ccc2c(-c3nc(C4CCCCC4)no3)cc(-c3ccncc3)nc2c1 -12.8

// inhibition lookup, key: Cc1cc(C)c(-c2cc(C(=O)Nc3c(C)n(C)n(-c4ccccc4)c3=O)[nH]n2)c(O)c1 1.8

// inhibition lookup, key: O=C(NCc1ccco1)c1noc2c1CCCCC2 1.3

// inhibition lookup, key: COc1ccc(N2CCN(C(c3cccc(OC)c3OC)c3nnnn3C3CCCC3)CC2)cc1 (stereo not given) 20

// inhibition lookup, key: Cc1cnc(C(=O)NCCc2ccc(S(=O)(=O)NC(=O)NC3CCCCC3)cc2)cn1 0.1

---

target: Muscarinic acetylcholine receptor M4 (Homo sapiens); assay: M4-linked GIRK flux change, two-sided – cell-based, HEK293 M4/GIRK, thallium flux, BTC-AM, M4 allosteric agonist project, primary screen (AID 625); conditions: at 10 µM, actives lie on both sides;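 note: thallium influx through GIRK channels coupled to M4 in HEK293 cells with BTC-AM dye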
Recorded fluorescence slope, one value per entry.
Form field (numeric): enter value without unit.

// fluorescence slope lookup, key: CC(C)CCNC(=O)NC(=O)CSc1nnc(-c2ccccc2Br)o1 0.0066

// fluorescence slope lookup, key: CCC(=O)NC1(C(F)(F)F)C(=O)NC(C)=C1C#N (stereo not given) 0.00561

// fluorescence slope lookup, key: Cc1ccc(S(=O)(=O)NCCc2ccncc2)cc1 0.00601

// fluorescence slope lookup, key: Cc1c(Br)c(C(F)(F)F)nn1CC(=O)NCCN1CCOCC1 0.00496

// fluorescence slope lookup, key: Cc1nnc(C)c2c(C)n(-c3ccc(Br)cc3)c(C)c12 0.00472

// fluorescence slope lookup, key: CC1(C)CC(=O)C(C=NCCO)=C(O)C1 0.00793

Next:
// fluorescence slope lookup, key: O=C(Cn1c(=O)[nH]n(-c2ccccc2)c1=O)N1CCCc2ccccc21 0.00957

// fluorescence slope lookup, key: C=C(c1ccc(O)cc1)c1ccc(O)cc1 0.00598

// fluorescence slope lookup, key: Cc1ccc(C(=O)CCC2CCCC2=O)cc1 (stereo not given) 0.00558

---

assay: reduction of polyQ htt aggregates in cells – imaging, exon1htt(103Q)mCFP cells, high-content imaging, primary screen (AID 483); conditions: exon1htt(103Q)mCFP cell line, aggregate imaging, at 2 µM; measured here: cell count, toxicity;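 note: compound exposure lasted 3 days before fixation; percent of the per-plate median nuclei count of sample wells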
hey, just use Satisfied if measured nuclei count is less than 90%, otherwise Not satisfied

Examples with answers:
Is nuclei count of CCn1c(SCC(N)=O)nc2c1c(=O)n(C)c(=O)n2C strictly below 90%? Satisfied

Is nuclei count of O=C(CCn1c(=O)sc2ccccc21)Nc1cccnc1 strictly below 90%? Satisfied

Is nuclei count of O=C(Cn1c(=O)[nH]n(-c2ccccc2)c1=O)N1CCCc2ccccc21 strictly below 90%? Not satisfied

Next:
Is nuclei count of O=C(Nc1ccc2nn(-c3ccccc3)nc2c1)c1ccc(Br)o1 strictly below 90%? Not satisfied

Is nuclei count of COC(=O)c1c(N)nc(C)n1-c1ccc(OC)cc1 strictly below 90%? Satisfied

Is nuclei count of CC1CCN(C(=O)Cn2c(=O)oc3ccccc32)CC1 strictly below 90%? Not satisfied

Is nuclei count of Cc1cc(C2C(C#N)=C(N)SC(N)=C2C#N)c(C)s1 strictly below 90%? Not satisfied

Is nuclei count of Cc1ccc(S(=O)(=O)NCC2CCC(C(=O)NCCCN3CCOCC3)CC2)cc1 (centres undefined) strictly below 90%? Satisfied

Is nuclei count of Cc1ccc(S(=O)(=O)N2CCCC2C(=O)OCc2ccco2)cc1 (centres undefined) strictly below 90%? Not satisfied

Is nuclei count of COc1ccccc1NC(=O)c1nnn(CC(=O)Nc2ccccc2)c1N strictly below 90%? Not satisfied

Is nuclei count of CN(C)CCOC(C)(c1ccccc1)c1ccccn1 (centres undefined) strictly below 90%? Not satisfied

Is nuclei count of CCc1oc2ccccc2c1C(=O)c1cc(Br)c(O)c(Br)c1 strictly below 90%? Not satisfied

Is nuclei count of N#CCCn1cnc2ccccc21 strictly below 90%? Not satisfied

Is nuclei count of CC(NC(=O)CSc1n[nH]c(=O)n1C1CC1)C12CC3CC(CC(C3)C1)C2 (centres undefined) strictly below 90%? Not satisfied

Is nuclei count of O=C(NCc1ccco1)C1CC(=O)N(c2ccc(F)cc2)C1 (centres undefined) strictly below 90%? Not satisfied

Is nuclei count of COc1cccc2cc(C(=O)N3CCc4ccccc43)c(=O)oc12 strictly below 90%? Not satisfied
